Data origin, for the record: ChEMBL document CHEMBL1153140

- Test Protocol: Oral bioavailability in Sprague-Dawley rat at 30 umol/kg
- Format: ADME, organism-based
- Conditions: in vivo
Quantity Name: bioavailability

Asked: Please look up its bioavailability: CC[C@@H]1CCCCN1C(=O)c1cnc(Nc2ccc(C)nc2)c(Cl)c1
Given back: 54%

###

- Test Protocol: Tmax in Sprague-Dawley rat at 30 umol/kg, po
- Type: ADME, organism-based
- Conditions: in vivo
Quantity Name: Tmax
Report as: number unit

Asked: Please look up its Tmax: CC[C@@H]1CCCCN1C(=O)c1cnc(Nc2ccc(C)nc2)c(Cl)c1
Given back: 15 min

###

Property: pIC50; scope: individual molecules
- Target Or Test System: Metabotropic glutamate receptor 5 (Homo sapiens)
- Sequence (P41594 whole entry): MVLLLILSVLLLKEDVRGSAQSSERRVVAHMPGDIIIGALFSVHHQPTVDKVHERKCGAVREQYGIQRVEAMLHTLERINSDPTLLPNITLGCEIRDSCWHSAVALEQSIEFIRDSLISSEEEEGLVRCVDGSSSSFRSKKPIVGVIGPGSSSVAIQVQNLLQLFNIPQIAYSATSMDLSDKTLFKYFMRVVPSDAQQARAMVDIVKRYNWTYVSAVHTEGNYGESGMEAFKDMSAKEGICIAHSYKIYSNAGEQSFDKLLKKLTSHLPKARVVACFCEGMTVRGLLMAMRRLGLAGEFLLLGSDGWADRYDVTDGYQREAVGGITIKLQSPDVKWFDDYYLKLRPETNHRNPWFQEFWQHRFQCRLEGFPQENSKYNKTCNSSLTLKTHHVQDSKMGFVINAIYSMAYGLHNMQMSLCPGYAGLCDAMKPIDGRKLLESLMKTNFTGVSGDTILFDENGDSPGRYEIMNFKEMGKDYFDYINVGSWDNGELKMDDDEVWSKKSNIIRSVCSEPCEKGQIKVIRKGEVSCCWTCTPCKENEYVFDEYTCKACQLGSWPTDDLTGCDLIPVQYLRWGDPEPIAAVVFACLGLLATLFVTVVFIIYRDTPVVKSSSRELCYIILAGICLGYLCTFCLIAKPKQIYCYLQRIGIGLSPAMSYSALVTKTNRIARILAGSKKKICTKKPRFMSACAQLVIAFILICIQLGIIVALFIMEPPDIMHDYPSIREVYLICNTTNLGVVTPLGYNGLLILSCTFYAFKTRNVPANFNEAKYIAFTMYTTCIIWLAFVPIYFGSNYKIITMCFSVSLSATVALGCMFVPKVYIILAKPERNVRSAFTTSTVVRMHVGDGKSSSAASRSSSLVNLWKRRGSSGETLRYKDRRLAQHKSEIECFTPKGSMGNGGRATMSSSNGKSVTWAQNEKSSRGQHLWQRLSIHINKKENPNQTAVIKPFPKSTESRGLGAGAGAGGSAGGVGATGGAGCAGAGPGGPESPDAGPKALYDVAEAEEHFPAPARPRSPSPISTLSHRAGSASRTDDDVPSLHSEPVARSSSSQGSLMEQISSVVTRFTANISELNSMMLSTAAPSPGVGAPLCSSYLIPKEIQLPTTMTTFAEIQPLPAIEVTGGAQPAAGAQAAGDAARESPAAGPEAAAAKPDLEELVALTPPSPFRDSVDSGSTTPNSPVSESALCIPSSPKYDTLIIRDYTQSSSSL
- Test Protocol: Antagonist activity at human mGluR5 assessed as inhibition of glutamate-induced elevation of intracellular calcium concentration
- Type: functional, cell-based
Note: pIC50 values are expressed as the negative base-10 logarithm of concentration in M.

Molecule: Cc1ccc(Nc2ccc(C(=O)N3CCCCC3)cn2)cc1
pIC50: 5.64
--
Molecule: CCC1CCCCN1C(=O)c1cnc(Nc2ccc(C)nc2)c(Cl)c1 (racemic)
pIC50: 6.96
--
Molecule: CC1CCCCN1C(=O)c1ccc(Nc2ccc(Cl)cc2)nc1 (racemic)
pIC50: 6.37

Asked: Please look up its pIC50: O=C(c1ccc(Nc2ccc(Cl)cc2)nc1)N1CCCC1
Given back: 5.27

Asked: Lookup O=C(c1ccc(Nc2ccc(Cl)cc2)nc1)N1CCCCCCC1
Given back: 5.64

Asked: Lookup O=C(c1ccc(Nc2ccc(Cl)cc2)nc1)N1CCCCCC1
Given back: 6.60

Asked: Lookup CC1CCCN(C(=O)c2cnc(Nc3ccc(Cl)cc3)nc2)C1 (centres undefined)
Given back: 6.01

Asked: Lookup COc1cc(C(=O)N2CCCCC2)cnc1Nc1ccc(Cl)cc1
Given back: 5.68

Asked: Lookup Cc1ccc(Nc2ccc(C(=O)N3CCCCC3)cn2)cn1
Given back: 6.38

Asked: Lookup CC1CCCN(C(=O)c2ccc(Nc3ccc(Cl)cc3)nc2)C1 (racemic)
Given back: 6.28

Asked: Lookup Cc1ccc(Nc2ncc(C(=O)N3CCCC[C@H]3C)cc2Cl)cn1
Given back: 6.62

Asked: Lookup O=C(c1ccc(Nc2ccc(Cl)cn2)nc1)N1CCCCC1
Given back: 5.00

Asked: Lookup CC[C@H]1CCCCN1C(=O)c1cnc(Nc2ccc(C)nc2)c(Cl)c1
Given back: 6.41

Asked: Lookup Cc1ccc(Nc2ncc(C(=O)N3CCCC[C@@H]3C)cc2Cl)cn1
Given back: 5.85

Asked: Lookup CC1CCCN(C(=O)c2cnc(Nc3ccc(Cl)cc3)c(Cl)c2)C1 (centres undefined)
Given back: 7.02

Asked: Lookup CC1CCCN(C(=O)c2ccc(Nc3ccc(Cl)cc3)nn2)C1 (centres undefined)
Given back: 6.14
